Source of measurements: patent US11453679B2

test-target: human Cav1.2 (Homo sapiens, UniProt Q13936)
Sequence (Q13936 whole entry): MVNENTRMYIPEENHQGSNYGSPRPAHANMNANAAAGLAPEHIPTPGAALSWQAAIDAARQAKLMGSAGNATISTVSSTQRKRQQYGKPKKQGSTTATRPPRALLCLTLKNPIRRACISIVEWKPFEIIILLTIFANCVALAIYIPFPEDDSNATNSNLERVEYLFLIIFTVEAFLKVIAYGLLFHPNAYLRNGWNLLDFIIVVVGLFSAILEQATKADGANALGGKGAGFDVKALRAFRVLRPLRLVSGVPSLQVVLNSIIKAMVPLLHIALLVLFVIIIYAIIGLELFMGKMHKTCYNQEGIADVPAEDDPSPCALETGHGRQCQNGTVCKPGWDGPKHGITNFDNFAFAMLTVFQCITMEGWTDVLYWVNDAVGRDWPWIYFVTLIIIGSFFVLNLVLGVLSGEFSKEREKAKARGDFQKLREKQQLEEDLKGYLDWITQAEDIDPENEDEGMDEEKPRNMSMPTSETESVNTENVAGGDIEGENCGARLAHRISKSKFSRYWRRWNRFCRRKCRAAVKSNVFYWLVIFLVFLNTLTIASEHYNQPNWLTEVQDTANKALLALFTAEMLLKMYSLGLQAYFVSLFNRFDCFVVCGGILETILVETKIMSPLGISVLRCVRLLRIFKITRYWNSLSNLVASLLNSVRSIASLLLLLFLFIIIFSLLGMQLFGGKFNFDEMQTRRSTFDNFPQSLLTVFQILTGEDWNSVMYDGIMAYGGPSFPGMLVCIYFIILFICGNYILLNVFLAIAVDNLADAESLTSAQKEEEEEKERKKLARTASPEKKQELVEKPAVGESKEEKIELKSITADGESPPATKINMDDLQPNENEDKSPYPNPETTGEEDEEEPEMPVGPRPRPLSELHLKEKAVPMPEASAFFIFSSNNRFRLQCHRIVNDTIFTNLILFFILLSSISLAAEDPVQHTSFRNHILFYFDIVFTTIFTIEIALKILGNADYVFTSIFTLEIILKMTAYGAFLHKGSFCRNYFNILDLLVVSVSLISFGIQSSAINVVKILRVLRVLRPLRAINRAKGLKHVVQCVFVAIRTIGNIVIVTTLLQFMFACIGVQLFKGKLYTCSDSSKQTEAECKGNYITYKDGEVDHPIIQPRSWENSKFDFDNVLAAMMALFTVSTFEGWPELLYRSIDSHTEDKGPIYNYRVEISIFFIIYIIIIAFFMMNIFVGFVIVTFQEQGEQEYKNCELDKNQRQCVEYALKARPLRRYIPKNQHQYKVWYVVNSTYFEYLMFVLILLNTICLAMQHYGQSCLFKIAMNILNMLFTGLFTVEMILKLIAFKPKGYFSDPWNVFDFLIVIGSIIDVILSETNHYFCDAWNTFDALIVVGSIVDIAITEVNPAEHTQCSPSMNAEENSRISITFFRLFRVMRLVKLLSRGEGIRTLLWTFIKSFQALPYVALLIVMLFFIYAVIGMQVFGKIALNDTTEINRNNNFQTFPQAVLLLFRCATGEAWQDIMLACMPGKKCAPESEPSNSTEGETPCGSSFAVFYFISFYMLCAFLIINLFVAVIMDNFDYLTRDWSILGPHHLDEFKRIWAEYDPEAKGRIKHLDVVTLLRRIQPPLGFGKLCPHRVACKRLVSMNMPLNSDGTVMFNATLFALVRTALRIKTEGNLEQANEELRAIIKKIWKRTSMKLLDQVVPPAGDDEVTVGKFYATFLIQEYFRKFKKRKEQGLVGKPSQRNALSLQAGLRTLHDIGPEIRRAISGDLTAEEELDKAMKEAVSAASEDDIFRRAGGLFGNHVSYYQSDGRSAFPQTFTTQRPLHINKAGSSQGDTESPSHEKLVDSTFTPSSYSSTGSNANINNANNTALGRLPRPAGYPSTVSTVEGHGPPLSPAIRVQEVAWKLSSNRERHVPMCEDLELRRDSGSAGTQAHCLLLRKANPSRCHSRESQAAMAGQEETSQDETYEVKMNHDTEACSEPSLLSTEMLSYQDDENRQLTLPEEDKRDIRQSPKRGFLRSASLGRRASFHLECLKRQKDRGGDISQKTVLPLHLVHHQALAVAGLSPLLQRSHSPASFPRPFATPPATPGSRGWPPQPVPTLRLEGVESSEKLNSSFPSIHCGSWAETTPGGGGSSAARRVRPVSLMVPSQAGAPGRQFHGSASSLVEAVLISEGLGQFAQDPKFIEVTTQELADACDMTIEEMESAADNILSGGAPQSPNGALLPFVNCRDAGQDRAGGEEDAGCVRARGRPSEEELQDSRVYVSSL
Sequence (Q9NY47 19-1001 partner limits assumed): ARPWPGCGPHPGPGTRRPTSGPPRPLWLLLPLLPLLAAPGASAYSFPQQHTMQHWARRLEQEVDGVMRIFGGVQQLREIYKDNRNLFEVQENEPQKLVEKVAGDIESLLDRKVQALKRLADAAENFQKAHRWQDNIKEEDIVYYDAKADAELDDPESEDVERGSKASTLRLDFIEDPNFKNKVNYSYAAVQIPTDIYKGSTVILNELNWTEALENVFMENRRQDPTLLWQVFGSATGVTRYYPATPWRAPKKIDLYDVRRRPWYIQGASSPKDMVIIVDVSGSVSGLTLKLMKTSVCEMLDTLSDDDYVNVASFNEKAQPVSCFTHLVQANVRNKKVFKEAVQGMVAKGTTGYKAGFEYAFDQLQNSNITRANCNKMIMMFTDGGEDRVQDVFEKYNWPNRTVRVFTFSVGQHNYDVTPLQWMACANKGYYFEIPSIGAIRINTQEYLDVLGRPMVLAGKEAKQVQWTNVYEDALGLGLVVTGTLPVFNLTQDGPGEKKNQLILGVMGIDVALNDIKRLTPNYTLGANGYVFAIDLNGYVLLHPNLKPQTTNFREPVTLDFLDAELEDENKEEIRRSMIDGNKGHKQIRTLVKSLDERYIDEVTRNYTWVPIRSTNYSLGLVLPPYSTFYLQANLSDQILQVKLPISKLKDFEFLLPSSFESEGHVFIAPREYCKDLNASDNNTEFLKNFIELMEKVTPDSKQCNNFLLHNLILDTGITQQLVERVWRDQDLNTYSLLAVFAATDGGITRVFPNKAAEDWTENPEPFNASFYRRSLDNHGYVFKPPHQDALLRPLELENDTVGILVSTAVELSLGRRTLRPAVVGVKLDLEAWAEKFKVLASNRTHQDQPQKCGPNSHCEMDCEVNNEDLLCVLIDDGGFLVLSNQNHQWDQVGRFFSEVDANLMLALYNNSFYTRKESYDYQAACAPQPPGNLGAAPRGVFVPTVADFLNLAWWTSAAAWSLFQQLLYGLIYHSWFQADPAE
Sequence (Q9NY47 1002-1150 partner limits assumed): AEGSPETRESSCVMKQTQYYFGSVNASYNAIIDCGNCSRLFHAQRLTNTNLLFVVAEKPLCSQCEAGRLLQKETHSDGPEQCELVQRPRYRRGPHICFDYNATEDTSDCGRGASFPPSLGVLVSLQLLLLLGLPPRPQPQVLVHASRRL
Sequence (Q08289 whole entry partner): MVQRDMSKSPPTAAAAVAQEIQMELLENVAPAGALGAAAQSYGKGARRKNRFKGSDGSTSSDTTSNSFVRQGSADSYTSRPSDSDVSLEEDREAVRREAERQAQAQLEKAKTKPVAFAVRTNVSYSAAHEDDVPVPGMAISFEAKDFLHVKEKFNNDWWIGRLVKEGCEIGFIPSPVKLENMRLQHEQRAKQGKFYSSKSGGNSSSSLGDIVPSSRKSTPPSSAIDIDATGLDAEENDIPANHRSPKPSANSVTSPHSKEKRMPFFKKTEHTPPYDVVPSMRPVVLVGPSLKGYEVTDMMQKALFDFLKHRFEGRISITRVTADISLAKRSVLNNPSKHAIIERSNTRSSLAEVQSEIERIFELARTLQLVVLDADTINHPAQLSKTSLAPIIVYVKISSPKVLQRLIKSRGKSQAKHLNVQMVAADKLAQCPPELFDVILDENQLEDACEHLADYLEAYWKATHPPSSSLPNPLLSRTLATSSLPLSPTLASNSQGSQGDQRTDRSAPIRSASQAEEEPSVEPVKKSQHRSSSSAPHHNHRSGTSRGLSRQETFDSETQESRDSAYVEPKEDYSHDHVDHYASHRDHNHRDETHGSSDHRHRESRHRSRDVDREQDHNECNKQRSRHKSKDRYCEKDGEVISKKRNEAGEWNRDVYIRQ
assay: Sophion QPatch whole-cell voltage clamp dose-response assay, Cav1.2-HEK293(AUX) cell line (barium currents)
test-settings: comparative examples (Table 6); maximal fold change of peak inward current
reported-metric: QPatch Emax

compound	reported-metric	result-value
CCOC(=O)C1=C(C)NC2=C(C(=O)OC2)[C@H]1c1ccccc1OCc1ccccc1 (single isomer, unassigned) [reference compound]	QPatch Emax	4.3
COC(=O)C1=C(C)NC2=C(C(=O)OC2)C1c1ccccc1C(F)(F)F (single isomer, unassigned) [reference compound]	QPatch Emax	1.4
COC(=O)C1=C(C)NC2=C(C(=O)OC2)C1c1ccccc1OC(F)F (single isomer, unassigned) [reference compound]	QPatch Emax	1.7
CCOC(=O)C1=C(C)NC2=C(C(=O)OC2)C1c1ccccc1C(F)(F)F (single isomer, unassigned) [reference compound]	QPatch Emax	1.9
COC(=O)C1=C(C)NC2=C(C(=O)OC2)C1c1ccccc1C (single isomer, unassigned) [reference compound]	QPatch Emax	1.4
CCOC(=O)C1=C(C)NC2=C(C(=O)OC2)[C@H]1c1ccccc1OC(F)F (single isomer, unassigned) [reference compound]	QPatch Emax	2.2
COC(=O)C1=C(C)NC(C)=C([N+](=O)[O-])[C@H]1c1ccccc1C(F)(F)F (single isomer, unassigned) [reference compound]	QPatch Emax	3.9
